B1: Osa-1-4 twister ribozyme (parent)
chain: CCGCCUAACACUGCCAAUGCCGGUCCCAAGCCCGGAUAAAAGUGGAGGGGGCGG

Variants of: B1
Assay: self-cleavage, relative activity (ratio to wild type); higher = more cleavage; co-transcriptional
Decision: self-cleavage compared against 0.08; not below it gives 1.0, below it gives 0.0.

Previously resolved entries follow.
Prompt: Hello, I need to know if C14G U12A has measured self-cleavage not below 0.08. Thanks!
Response: 1.0

Prompt: Please check the record A17G A28C and state if its self-cleavage is at or above 0.08.
Response: 1.0

Prompt: Does self-cleavage meet or surpass 0.08 for A16G G48C ?
Response: 1.0

Further cases:
Prompt: Does the reported self-cleavage for G19U U12G fall at or above the 0.08 mark?
Response: 1.0

Prompt: Does G47A G51U have a reported self-cleavage of at least 0.08?
Response: 1.0

Prompt: Exam item: decide whether the reported self-cleavage for A17C G19A is at least 0.08.
Response: 0.0
